Documented MIC across a set of molecules
# Test system: Acinetobacter baumannii
# EXPERIMENTAL PROTOCOL: Antimicrobial activity against ISAba1 linked with the blaOXA-51-type beta-lactamase harboring Acinetobacter baumannii alpha clonal group isolate 6 expressing ampC, ompA, adeB, adeM, aacC1, aadA1 by Etest method
# Type: functional
REPORTED METRIC: MIC (µg/mL)

MOLECULE: C[C@@H](O)[C@H]1C(=O)N2C(C(=O)O)=C(S[C@@H]3CN[C@H](C(=O)N(C)C)C3)[C@H](C)[C@H]12 [MEROPENEM]
REPORTED METRIC: MIC
REPORTED: 12
//
MOLECULE: NCC[C@H](O)C(=O)N[C@@H]1C[C@H](N)[C@@H](O[C@H]2O[C@H](CN)[C@@H](O)[C@H](O)[C@H]2O)[C@H](O)[C@H]1O[C@H]1O[C@H](CO)[C@@H](O)[C@H](N)[C@H]1O [AMIKACIN]
REPORTED METRIC: MIC
REPORTED: 1.5
//
MOLECULE: C[C@H]1COc2c(N3CCN(C)CC3)c(F)cc3c(=O)c(C(=O)O)cn1c23.C[C@H]1COc2c(N3CCN(C)CC3)c(F)cc3c(=O)c(C(=O)O)cn1c23.O [LEVOFLOXACIN]
REPORTED METRIC: MIC
REPORTED: 6

###

# System: Acinetobacter baumannii
# EXPERIMENTAL PROTOCOL: Antimicrobial activity against ISAba1 linked with the blaOXA-51-type beta-lactamase harboring Acinetobacter baumannii alpha clonal group isolate 8 expressing ampC, ompA, adeB, adeM, aacC1, aadA1 by Etest method
# Type: functional
Please note: MIC exactly at 30 µg/mL is Not satisfied. Only values below 30 µg/mL get Satisfied.

COMPOUND: C[C@@H](O)[C@H]1C(=O)N2C(C(=O)O)=C(SCCNC=N)C[C@H]12 [IMIPENEM ANHYDROUS]
CATEGORY: Satisfied
--
COMPOUND: C[C@H]1COc2c(N3CCN(C)CC3)c(F)cc3c(=O)c(C(=O)O)cn1c23.C[C@H]1COc2c(N3CCN(C)CC3)c(F)cc3c(=O)c(C(=O)O)cn1c23.O [LEVOFLOXACIN]
CATEGORY: Not satisfied
--
COMPOUND: CN(C)c1cc(NC(=O)CNC(C)(C)C)c(O)c2c1C[C@H]1C[C@H]3[C@H](N(C)C)C(O)=C(C(N)=O)C(=O)[C@@]3(O)C(O)=C1C2=O [TIGECYCLINE]
CATEGORY: Satisfied
--
COMPOUND: NCC[C@H](O)C(=O)N[C@@H]1C[C@H](N)[C@@H](O[C@H]2O[C@H](CN)[C@@H](O)[C@H](O)[C@H]2O)[C@H](O)[C@H]1O[C@H]1O[C@H](CO)[C@@H](O)[C@H](N)[C@H]1O [AMIKACIN]
CATEGORY: Satisfied
--
COMPOUND: CC(C)(O/N=C(\C(=O)N[C@@H]1C(=O)N2C(C(=O)[O-])=C(C[n+]3ccccc3)CS[C@H]12)c1csc(N)n1)C(=O)O [CEFTAZIDIME]
CATEGORY: Not satisfied
--
COMPOUND: C[C@@H](O)[C@H]1C(=O)N2C(C(=O)O)=C(S[C@@H]3CN[C@H](C(=O)N(C)C)C3)[C@H](C)[C@H]12 [MEROPENEM]
CATEGORY: Satisfied

Where these numbers come from: ChEMBL document CHEMBL1671617
